- Test system: Trypanosoma brucei
- EXPERIMENT NOTES: Trypanocidal activity against Trypanosoma brucei blood stream forms
- Format: functional
Please go through the items and note down their EC50.
Just the number please, in µM, no unit attached.

Tell me the measured EC50 of "CCCCCC[C@H]1CCC[C@@H](Cn2cc([C@@H]3CCC[C@H](CCCCO)O3)nn2)O1" , please.
1.8

Subsequent entry: "C[C@H]1C=C(CCCCCCCCCC[C@H]2CCC[C@@H](c3cn(C[C@@H]4CCC[C@H](CCCCOCc5ccccc5)O4)nn3)O2)C(=O)O1"
5.2

###

- Tested on: Trypanosoma brucei
- EXPERIMENT NOTES: Trypanocidal activity against Trypanosoma brucei 427 procyclic forms after 64 hrs by Alamar blue assay
- Type: functional
- RUN CONDITIONS: Trypanosoma brucei, 427, 64 h
OBSERVABLE: EC50 (µM)
Just the number please, in µM, no unit attached.

Tell me the measured EC50 of "O=C(NCCCCCCOCCCC[C@H]1CCC[C@@H](Cn2cc([C@@H]3CCC[C@H](CCCCOCc4ccccc4)O3)nn2)O1)c1ccoc1" , please.
5.4

Subsequent entry: "Cc1nc(C(=O)NCCCCCCOCCCC[C@H]2CCC[C@@H](Cn3cc([C@@H]4CCC[C@H](CCCCOCc5ccccc5)O4)nn3)O2)co1"
7.1

Subsequent entry: "COCCCCCCNC(=O)c1ccnn1C"
47.4

Subsequent entry: "O=C(NCCCCCCOCCCC[C@H]1CCC[C@@H](Cn2cc([C@@H]3CCC[C@H](CCCCOCc4ccccc4)O3)nn2)O1)c1ccsc1"
5

Subsequent entry: "O=C(NCCCCCCOCCCC[C@H]1CCC[C@@H](Cn2cc([C@@H]3CCC[C@H](CCCCOCc4ccccc4)O3)nn2)O1)c1ccccc1"
4.3

Subsequent entry: "Cc1ccc(C(=O)NCCCCCCOCCCC[C@H]2CCC[C@@H](Cn3cc([C@@H]4CCC[C@H](CCCCOCc5ccccc5)O4)nn3)O2)o1"
3.1

Subsequent entry: "O=C(NCCCCCCOCCCC[C@H]1CCC[C@@H](Cn2cc([C@@H]3CCC[C@H](CCCCOCc4ccccc4)O3)nn2)O1)c1ccc[nH]1"
4.6

Subsequent entry: "c1ccc(COCCCCCCOCCCC[C@H]2CCC[C@@H](Cn3cc([C@@H]4CCC[C@H](CCCCOCc5ccccc5)O4)nn3)O2)cc1"
29

Subsequent entry: "COCCCCCCNC(=O)c1ccc([N+](=O)[O-])o1"
0.37

Subsequent entry: "OCCCCCCOCCCC[C@H]1CCC[C@@H](Cn2cc([C@@H]3CCC[C@H](CCCCO)O3)nn2)O1"
56.3

Subsequent entry: "O=C(NCCCCCCOCCCC[C@H]1CCC[C@@H](Cn2cc([C@@H]3CCC[C@H](CCCCOCc4ccccc4)O3)nn2)O1)c1cscn1"
5.8

Subsequent entry: "NCCCCCCOCCCC[C@H]1CCC[C@@H](Cn2cc([C@@H]3CCC[C@H](CCCCOCc4ccccc4)O3)nn2)O1"
9.1

Subsequent entry: "COCCCCCCNC(=O)c1ccco1"
124

Subsequent entry: "O=C(NCCCCCCOCCCC[C@H]1CCC[C@@H](Cn2cc([C@@H]3CCC[C@H](CCCCOCc4ccccc4)O3)nn2)O1)c1cocn1"
9.9

Subsequent entry: "Cn1cccc1C(=O)NCCCCCCOCCCC[C@H]1CCC[C@@H](Cn2cc([C@@H]3CCC[C@H](CCCCOCc4ccccc4)O3)nn2)O1"
5

Subsequent entry: "O=C(NCCCCCCOCCCC[C@H]1CCC[C@@H](Cn2cc([C@@H]3CCC[C@H](CCCCOCc4ccccc4)O3)nn2)O1)c1ccc([N+](=O)[O-])o1"
0.1
